System: NCI-H23 lung
experimentSummary: NCI-60 one-dose screen, 48 h (100 = growth as untreated, 0 = no growth, -100 = all killed)
condition: 10 µM unless noted
The panel holds about 83,000 compounds, 20% with a hit somewhere; the sample as a whole holds those more often.
Classify: 1 (yes) when growth is strictly less than 90%; 0 (no) when growth is not.

INSERT INTO measurements (molecule, classassignment) VALUES
  ('FC(F)(F)c1cccc([Si](F)(c2cccc(C(F)(F)F)c2)c2cccc(C(F)(F)F)c2)c1', '1 (yes)'),
  ('CCn1cc(C(=O)O)c(=O)c2cc(F)c(N3CCN(CC(=O)Nc4ccc(C(C)=O)cc4)CC3)cc21', '0 (no)'),
  ('Nc1nccc2c1ccn2-c1cccc(NC(=O)c2ccc(N3CCOCC3)c(C(F)(F)F)c2)c1', '1 (yes)'),
  ('Cc1ncc(CO)c(C(=O)O)c1O', '0 (no)'),
  ('Cc1cc[n+](CCCC[n+]2ccc(C)cc2)cc1', '0 (no)'),
  ('O=C(O)c1cccc(S(=O)(=O)c2ccccc2)c1', '0 (no)'),
  ('COC(OC)C1(c2ccccc2)NC(=O)NC1=O (stereo not given)', '0 (no)'),
  ('C=CC(=O)Nc1cccc(Nc2nc(Nc3ccc(OCCOC(F)F)cc3)ncc2F)c1', '1 (yes)'),
  ('CC(/C=C/C=C(\C)[C@H](O)[C@H](C)C(=O)O[C@H]1C[C@H](C)C=C2C=C[C@@]3(C)O[C@@H](O)CC(=O)[C@]3(C)[C@H]21)=C\C=C\C(=O)O', '1 (yes)');
